- assayProcedure: Stability of linkers L1-L4 conjugated to FGF21 (LC-MS)
- Type: physicochemical
- assaySetup: +4° C., 0 hrs
propertyLabel: +(1) H2O
Returns: string containing the number followed by the unit.

L3-FGF21ΔH-A129C: Linker-3 conjugated to FGF21ΔH-A129C protein (Table 4; Table 5 row L3) (conjugate, UniProt Q9NSA1 29-209, looked up, variant H1* A129C, Linker-3 attached) Fibroblast growth factor 21: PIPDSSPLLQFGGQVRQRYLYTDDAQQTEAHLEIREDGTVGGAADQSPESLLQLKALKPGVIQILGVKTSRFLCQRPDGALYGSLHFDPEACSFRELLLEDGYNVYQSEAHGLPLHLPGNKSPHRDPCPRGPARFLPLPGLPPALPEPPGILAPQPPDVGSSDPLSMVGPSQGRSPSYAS    30%

**Query** Find the measured +(1) H2O of L4-FGF21ΔH-A129C: Linker-4 conjugated to FGF21ΔH-A129C protein (Table 4; Table 5 row L4) (conjugate, UniProt Q9NSA1 29-209, looked up, variant H1* A129C, Linker-4 attached) Fibroblast growth factor 21: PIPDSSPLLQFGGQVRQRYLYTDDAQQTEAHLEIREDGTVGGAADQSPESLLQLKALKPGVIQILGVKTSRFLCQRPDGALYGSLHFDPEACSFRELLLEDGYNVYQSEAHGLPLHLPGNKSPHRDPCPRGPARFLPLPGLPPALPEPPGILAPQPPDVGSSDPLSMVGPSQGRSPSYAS and report it.
**Result** 28%

**Query** Identify measured +(1) H2O corresponding to L2-FGF21ΔH-A129C: Linker-2 conjugated to FGF21ΔH-A129C protein (Table 4; Table 5 row L2) (conjugate, UniProt Q9NSA1 29-209, looked up, variant H1* A129C, Linker-2 attached) Fibroblast growth factor 21: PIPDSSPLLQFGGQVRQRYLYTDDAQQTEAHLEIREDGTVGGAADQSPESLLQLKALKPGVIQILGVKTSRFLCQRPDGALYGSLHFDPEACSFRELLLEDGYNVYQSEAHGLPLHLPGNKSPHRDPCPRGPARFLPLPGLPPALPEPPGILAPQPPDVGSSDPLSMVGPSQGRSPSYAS
**Result** 27%

// data source = patent US8722622B2
